- protocol: Metabolic stability in human hepatocytes at 20 uM after 2 hrs
- Format: ADME, cell-based, Hepatocyte
- measurement.conditions: read-out: Stability
recorded.endpoint: remaining at 2 h, 20 µM (%)

[[record]]
chem_smiles = "COc1cccc(OC)c1C1(C(=O)[N-]S(=O)(=O)Cc2ccc(N3Cc4c(c(OCC(F)(F)F)c5cccnc5c4OCC(F)(F)F)C3=O)c(C)c2)CC1.[Na+]"
unit_symbol = "%"
measured = 36


---

- protocol: Clearance in rat at 20 mg/kg, po or 5 mg/kg, iv
- Assay type: ADME, organism-based
- measurement.conditions: in vivo
recorded.endpoint: clearance (mL/min/kg)

[[record]]
chem_smiles = "CCOc1c2c(c(OCC)c3ncccc13)CN(c1ccc(CS(=O)(=O)[N-]C(=O)Cc3ccccc3OC)cc1C)C2=O.[Na+]"
unit_symbol = "mL/min/kg"
measured = 7.8


Values from ChEMBL document CHEMBL1142248
